Where these numbers come from: patent US20260176260A1

Test system: Pa16c cells
Assay summary: Pa16c cell proliferation assay (resazurin)
Format: cell-based
Measurement conditions: Table 2, inhibition of cell proliferation
pIC50: −log10 of the molar value.
// reported pIC50 per item

{"Entry smiles": "CNC(=O)c1cc(-c2cc(-c3cc(NC(=O)c4cc(C(C)(F)F)cnn4)ccc3C)cc(OCCO)n2)ccn1", "Assay system": "Pa16c cells", "Observed": "6.30 to 7.00"}

Enquiry: // returns reported pIC50 for input CNC(=O)c1cc(-c2cc(-c3cc(NC(=O)c4cc(C(F)(F)F)cnn4)ccc3C)cc(N)n2)ccn1
Return: 5.00 to 6.00

Enquiry: // returns reported pIC50 for input CNC(=O)c1cc(-c2cc(-c3cc(NC(=O)c4cnc(C(F)(F)F)nc4)ccc3C)ccn2)ccn1
Return: 6.30 to 7.00
